The values you see were collected from a melting point compilation (Tetko et al.).

Entries and their measured melting point follow.
outcome_measure: melting point (°C)

[[record]]
compound = "Cc1ccc(NC(=O)C(C(F)(F)F)C(F)(F)F)cc1"
units_symbol = "°C"
numeric_value = 196

[[record]]
compound = "Cc1c(C(=O)Cl)cnn1-c1ccc(Cl)cc1"
units_symbol = "°C"
numeric_value = 115

[[record]]
compound = "CCC=C1CCC2C3CCC4CC(OC(C)=O)CCC4(C)C3CCC12C (stereo not given)"
units_symbol = "°C"
numeric_value = 114

[[record]]
compound = "COc1cncc(Br)c1"
units_symbol = "°C"
numeric_value = 31

[[record]]
compound = "Cc1cccc(N/N=C(/C#N)c2nc(-c3ccc(Cl)cc3)cs2)c1"
units_symbol = "°C"
numeric_value = 157

[[record]]
compound = "CCOC(=O)C(C(C)=O)C(=O)c1ccc(C(=O)C(C(C)=O)C(=O)OCC)cc1 (stereo not given)"
units_symbol = "°C"
numeric_value = 99

[[record]]
compound = "Fc1c(F)c(F)c(P(c2ccccc2)c2c(F)c(F)c(F)c(F)c2F)c(F)c1F"
units_symbol = "°C"
numeric_value = 61.5

[[record]]
compound = "CC12CCC(C(C(=O)O)C1=O)C2(C)C (stereo not given)"
units_symbol = "°C"
numeric_value = 128

[[record]]
compound = "O=C(Oc1ccc(O)cc1)c1ccccc1"
units_symbol = "°C"
numeric_value = 166

[[record]]
compound = "CCOc1cc(C(=O)O)cc(OCC)c1OCC"
units_symbol = "°C"
numeric_value = 112

[[record]]
compound = "O=C(OCC(=O)N1CCCCC1)c1ccccc1"
units_symbol = "°C"
numeric_value = 88

[[record]]
compound = "CC1(C)OC(=O)C(=Cc2ccc([N+](=O)[O-])cc2)C(=O)O1"
units_symbol = "°C"
numeric_value = 301

